- assayMethodText: in vitro
- Set-up: MTT viability assay, HepG2 cells
- condition: human, hepg2 cells; read-out: HepG2 IC50
Item-by-item account of CC50 at 24 h
Output spec: scalar in µM, unitless text.

[
  {
    "molecule": "N#Cc1ccc2sc(NCC(=O)Nc3c4c(nc5c3CCC5)CCCC4)nc2c1 [7e]",
    "readoutNumber": 26.4
  },
  {
    "molecule": "O=C(CNc1nc2cc([N+](=O)[O-])ccc2s1)Nc1c2c(nc3c1CCC3)CCCC2 [7j]",
    "readoutNumber": 25.8
  },
  {
    "molecule": "CC12CC3CC(C)(C1)CC(NCC(=O)Nc1c4c(nc5c1CCC5)CCCC4)(C3)C2 [5b]",
    "readoutNumber": 19.5
  },
  {
    "molecule": "O=C(CNc1nc2c(Br)cccc2s1)Nc1c2c(nc3c1CCC3)CCCC2 [7d]",
    "readoutNumber": 14.5
  },
  {
    "molecule": "O=C(CNC12CC3CC(CC(C3)C1)C2)Nc1c2c(nc3c1CCC3)CCCC2 [5a]",
    "readoutNumber": 67.9
  }
]

Exercise: Could you please provide reported CC50 at 24 h for O=C(CNc1nc2cc(Br)ccc2s1)Nc1c2c(nc3c1CCC3)CCCC2 [7c] ? Thanks!
Key: 21.6
